Reported values: IC50 for human FGFR3 wild type enzyme (cytoplasmic domain) (Homo sapiens), one per item.
property measured: IC50 (nM)

Some compounds with known IC50 results, for comparison:
COc1cc2nc(-c3c(NC(c4ncccn4)C(C)C)c4nn(C)cc4[nH]c3=O)[nH]c2cc1OC (single isomer, unassigned) [Compound 27]
4.82
CC(C)C(Nc1c(-c2nc3ccc(C(N)=O)cc3[nH]2)c(=O)[nH]c2cn(C)nc12)c1ncccn1 (single isomer, unassigned) [Compound 9]
4.33
C[C@H](Nc1c(-c2nc3ccc(F)cc3[nH]2)c(=O)[nH]c2cn(C)nc12)c1ncccn1 [Compound 28]
7.14
COc1ccc2nc(-c3c(N[C@H](c4ncccn4)C(C)C)c4nn(C)cc4[nH]c3=O)[nH]c2c1 (single isomer, unassigned) [Compound 15]
4.52
COCC(Nc1c(-c2nc3cc(OC)c(OC)cc3[nH]2)c(=O)[nH]c2cn(C)nc12)c1ncccn1 (single isomer, unassigned) [Compound 25]
15.4

(P) CC[C@H](Nc1c(-c2nc3ccc(OCCOC)cc3[nH]2)c(=O)[nH]c2cn(C)nc12)c1ncccn1 (single isomer, unassigned) [Compound 48]
(Q) CC(C)[C@H](Nc1c(-c2nc3cnccc3[nH]2)c(=O)[nH]c2cn(C)nc12)c1ncccn1 (single isomer, unassigned) [Compound 24]
Task item: P or Q : whose IC50 is greater? Indicate your choice by writing its label.
Reply: Q

----------
- target: NIH/3T3 cells overexpressing FGFR3 V555M-TACC3 fusion protein (Homo sapiens, UniProt P22607, V555M, cells depend on it)
- Construct: fused on or other part: Q9Y6A5 (Transforming acidic coiled-coil-containing protein 3)
- Sequence (P22607 whole entry V555M, the tested form may be a part): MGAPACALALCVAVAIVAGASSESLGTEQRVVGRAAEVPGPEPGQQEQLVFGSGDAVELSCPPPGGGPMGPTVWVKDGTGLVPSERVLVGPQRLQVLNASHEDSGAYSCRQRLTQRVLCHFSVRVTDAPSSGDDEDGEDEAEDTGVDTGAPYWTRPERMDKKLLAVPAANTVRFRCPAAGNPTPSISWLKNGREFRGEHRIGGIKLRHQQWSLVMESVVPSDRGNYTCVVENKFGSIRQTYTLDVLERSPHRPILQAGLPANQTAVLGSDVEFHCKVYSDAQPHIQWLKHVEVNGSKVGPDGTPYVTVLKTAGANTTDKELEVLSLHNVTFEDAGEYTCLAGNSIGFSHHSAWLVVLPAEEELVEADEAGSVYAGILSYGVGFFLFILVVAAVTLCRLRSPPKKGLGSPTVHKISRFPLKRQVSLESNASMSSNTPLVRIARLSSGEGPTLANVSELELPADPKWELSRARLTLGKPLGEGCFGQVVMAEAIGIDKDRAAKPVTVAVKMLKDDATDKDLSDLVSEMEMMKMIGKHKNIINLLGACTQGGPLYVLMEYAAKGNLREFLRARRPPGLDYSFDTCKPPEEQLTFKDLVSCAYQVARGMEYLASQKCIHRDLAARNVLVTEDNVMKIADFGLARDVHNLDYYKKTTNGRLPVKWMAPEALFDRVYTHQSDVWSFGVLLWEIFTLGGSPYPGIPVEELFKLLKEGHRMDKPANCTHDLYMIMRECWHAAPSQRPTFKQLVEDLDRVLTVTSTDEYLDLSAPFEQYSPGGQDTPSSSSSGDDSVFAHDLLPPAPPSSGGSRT
- assay procedure: NIH/3T3 FGFR3 V555M-TACC3 cell proliferation assay
- Type: cell-based
- protocol conditions: 72-hr incubation, CellTiter Glo; read-out: NIH/3T3 FGFR3 V555M-TACC3 CTG (IC50)
property measured: GI50 (nM)

Some solved entries appear below for comparison.
CCn1cc2[nH]c(=O)c(-c3nc4ccc(OC)cc4[nH]3)c(N[C@@H](C)c3ncccn3)c2n1
31.8
COc1cnc2nc(-c3c(NC(c4ncccn4)C(C)C)c4nn(C)cc4[nH]c3=O)[nH]c2c1 (single isomer, unassigned)
78.5
COCC(Nc1c(-c2nc3ccc(OC)cc3[nH]2)c(=O)[nH]c2cn(C)nc12)c1ncccn1 (single isomer, unassigned)
109
COCCOc1cc2[nH]c(-c3c(NC(c4ncccn4)C(C)C)c4nn(C)cc4[nH]c3=O)nc2cc1OC (single isomer, unassigned)
21.5
COc1cc2[nH]c(-c3c(N[C@@H](C)c4ncccn4)c4nn(C)cc4[nH]c3=O)nc2cn1
7.88
COc1ccc2nc(-c3c(NC(C)c4ncccn4)c4nn(C)cc4[nH]c3=O)[nH]c2c1 (single isomer, unassigned)
4.07
CCOc1cc2nc(-c3c(N[C@@H](C)c4ncccn4)c4nn(C)cc4[nH]c3=O)[nH]c2cc1OCC
4.15
CCn1cc2[nH]c(=O)c(-c3nc4c(OC)cc(OC)cc4[nH]3)c(N[C@@H](C)c3ncccn3)c2n1
64.5
COc1cc2nc(-c3c(NC(c4ncccn4)C4CC4)c4nn(C)cc4[nH]c3=O)[nH]c2cc1OC (single isomer, unassigned)
27.6
CCn1cc2[nH]c(=O)c(-c3nc4cc(OC)c(OC)cc4[nH]3)c(N[C@@H](C)c3ccccn3)c2n1
31.1

(A) COc1cc2[nH]c(-c3c(NC(c4ncccn4)C(C)C)c4nn(C)cc4[nH]c3=O)nc2cn1 (single isomer, unassigned)
(B) CC(C)[C@H](Nc1c(-c2nc3cnccc3[nH]2)c(=O)[nH]c2cn(C)nc12)c1ncccn1 (single isomer, unassigned)
Task item: Looking only at measured GI50, which entry is lower, A or B ? Write down the label of the entry you select.
Reply: A

----------
- target: NIH/3T3 cells overexpressing FGFR3 V555M-TACC3 fusion protein (Homo sapiens, UniProt P22607, V555M, cells depend on it)
- Construct: fused on or other part: Q9Y6A5 (Transforming acidic coiled-coil-containing protein 3)
- assay procedure: NIH/3T3 FGFR3 V555M-TACC3 cell proliferation assay
- Assay type: cell-based
- protocol conditions: 72-hr incubation, CellTiter Glo; read-out: NIH/3T3 FGFR3 V555M-TACC3 CTG (IC50)
property measured: GI50 (nM)

Sample answers from the record:
COc1cc2[nH]c(-c3c(N[C@@H](C)c4ncccn4)c4nn(C)cc4[nH]c3=O)nc2c(F)c1OC
11.8
CCOc1ccc2nc(-c3c(N[C@@H](C)c4ncccn4)c4nn(CC)cc4[nH]c3=O)[nH]c2c1
40.9
CCOc1cc2[nH]c(-c3c(N[C@@H](C)c4ncccn4)c4nn(C)cc4[nH]c3=O)nc2cc1OC
6.37
C[C@H](Nc1c(-c2nc3ccc(F)cc3[nH]2)c(=O)[nH]c2cn(C)nc12)c1ncccn1
13.3

(A) COc1cc(F)c2nc(-c3c(N[C@@H](C)c4ncccn4)c4nn(C)cc4[nH]c3=O)[nH]c2c1
(B) COCC(Nc1c(-c2nc3cc(OC)c(OC)cc3[nH]2)c(=O)[nH]c2cn(C)nc12)c1ncccn1 (single isomer, unassigned)
(C) CC(C)C(Nc1c(-c2nc3ccc(C(N)=O)cc3[nH]2)c(=O)[nH]c2cn(C)nc12)c1ncccn1 (single isomer, unassigned)
Task item: Ascending sort, GI50. Order the labels as requested and give them as your answer.
Reply: A, C, B
(A: 16.1 nM, C: 200 nM, B: 359 nM)

----------
- target: human FGFR3 V555M enzyme (cytoplasmic domain carrying V555M mutation) (Homo sapiens, UniProt P22607, V555M)
- Construct: human FGFR3 V555M enzyme (cytoplasmic domain carrying V555M mutation, from Carna Biosciences)
- Sequence (P22607 397-806 V555M): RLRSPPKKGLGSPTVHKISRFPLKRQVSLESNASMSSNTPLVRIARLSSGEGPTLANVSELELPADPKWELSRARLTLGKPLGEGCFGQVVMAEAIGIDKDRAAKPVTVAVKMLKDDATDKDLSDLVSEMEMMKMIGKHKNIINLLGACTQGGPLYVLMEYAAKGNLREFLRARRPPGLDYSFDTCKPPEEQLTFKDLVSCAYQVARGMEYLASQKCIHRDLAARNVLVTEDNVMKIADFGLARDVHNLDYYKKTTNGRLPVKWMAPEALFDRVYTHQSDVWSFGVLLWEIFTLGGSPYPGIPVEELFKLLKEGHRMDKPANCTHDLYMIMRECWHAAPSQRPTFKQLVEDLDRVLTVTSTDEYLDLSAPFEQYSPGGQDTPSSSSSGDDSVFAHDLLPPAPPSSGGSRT
- assay procedure: FGFR3 V555M mobility shift assay (enzymatic assay)
- protocol conditions: 30 μM ATP, 45 minutes at 30° C., Caliper EZ reader II
- Experimental: FGFR3 V555M Mobility Shift Assay (Enzymatic Assay) In a final reaction volume of 25 μL, 0.04 ng/μL human FGFR3 V555M enzyme (cytoplasmic domain carrying V555M mutation, from Carna Biosciences) was incubated with 30 μM ATP, 1 μM FL-peptide 30 substrate and 250 nL of testing compound (1% DMSO final) in assay buffer (100 mM HEPES pH 7.4, 10 mM MgCl2, 0.003% Brij35, 1 mM DTT). […]
property measured: IC50 (nM)

CC(C)[C@H](Nc1c(-c2nc3cnccc3[nH]2)c(=O)[nH]c2cn(C)nc12)c1ncccn1 (single isomer, unassigned)
2.5

(I) COc1ccc2nc(-c3c(NC(C)c4ncccn4)c4nn(C)cc4[nH]c3=O)[nH]c2c1 (single isomer, unassigned)
(II) CC(C)C(Nc1c(-c2nc3ccc(C(N)=O)cc3[nH]2)c(=O)[nH]c2cn(C)nc12)c1ncccn1 (single isomer, unassigned)
(III) COCC(Nc1c(-c2nc3cc(OC)c(OC)cc3[nH]2)c(=O)[nH]c2cn(C)nc12)c1ncccn1 (single isomer, unassigned)
(IV) CCC(Nc1c(-c2nc3cc(OC)c(OC)cc3[nH]2)c(=O)[nH]c2cn(CC)nc12)c1ncccn1 (single isomer, unassigned)
Task item: Returns the items ordered by IC50, from maximum to minimum. Response format: the labels, sorted as the prompt asks.
Reply: IV, III, II, I
(IV: 347 nM, III: 2.65 nM, II: 0.803 nM, I: 0.27 nM)

----------
- target: NIH/3T3 cells overexpressing FGFR3 WT-TACC3 fusion protein (Homo sapiens, UniProt P22607)
- Construct: fused on or other part: Q9Y6A5 (Transforming acidic coiled-coil-containing protein 3)
- Sequence (P22607 whole entry, change not shown, the tested form may be a part): as the sequence (P22607 whole entry V555M, the tested form may be a part) above, with M555V counted along it
- assay procedure: NIH/3T3 FGFR3 WT-TACC3 cell proliferation assay
- Type: cell-based
- protocol conditions: 72-hr incubation, CellTiter Glo; read-out: NIH/3T3 FGFR3 WT-TACC3 CTG (IC50)
property measured: GI50 (nM)

Would you please look over these solved cases?
CCn1cc2[nH]c(=O)c(-c3nc4ccc(OC)cc4[nH]3)c(N[C@@H](C)c3ncccn3)c2n1
21.9
COCCOc1cc2[nH]c(-c3c(NC(c4ncccn4)C(C)C)c4nn(C)cc4[nH]c3=O)nc2cc1OC (single isomer, unassigned)
25
COCC(Nc1c(-c2nc3ccc(OC)cc3[nH]2)c(=O)[nH]c2cn(C)nc12)c1ncccn1 (single isomer, unassigned)
106

(a) COc1ccc2nc(-c3c(N[C@H](c4ncccn4)C(C)C)c4nn(C)cc4[nH]c3=O)[nH]c2c1 (single isomer, unassigned)
(b) CCn1cc2[nH]c(=O)c(-c3nc4ccc(OCCOC)cc4[nH]3)c(N[C@@H](C)c3ncccn3)c2n1
Task item: Two entries are listed, a and b . Which one carries the higher GI50? Write down the label of the entry you select.
Reply: a

----------
- target: NIH/3T3 cells overexpressing FGFR3 V555M-TACC3 fusion protein (Homo sapiens, UniProt P22607, V555M, cells depend on it)
- Construct: fused on or other part: Q9Y6A5 (Transforming acidic coiled-coil-containing protein 3)
- assay procedure: NIH/3T3 FGFR3 V555M-TACC3 cell proliferation assay
- Assay type: cell-based
- protocol conditions: 72-hr incubation, CellTiter Glo; read-out: NIH/3T3 FGFR3 V555M-TACC3 CTG (IC50)
property measured: GI50 (nM)

CC(C)C(Nc1c(-c2nc3cnc(N(C)C)cc3[nH]2)c(=O)[nH]c2cn(C)nc12)c1ncccn1 (single isomer, unassigned)
50.7

(1) CCn1cc2[nH]c(=O)c(-c3nc4cc(OC)c(OCCOC)cc4[nH]3)c(N[C@@H](C)c3ncccn3)c2n1
(2) CCOc1cc2nc(-c3c(N[C@@H](C)c4ncccn4)c4nn(CC)cc4[nH]c3=O)[nH]c2cc1OCC
Task item: // which entry reports the smaller GI50, 1 or 2 ? Refer to your chosen entry by its label in the reply.
Reply: 2
(2: 18.8 nM, 1: 37.3 nM)
